# experiment: Cmax in Beagle dog at 1 mg/kg, po
# Format: ADME, organism-based, Canis lupus familiaris
# Set-up: dose 1 mg/kg, route oral
# assay.conditions: in vivo
value.kind: Cmax (nM)
Response body: numeric value in nM, unit text excluded.

Query: What value of Cmax has been recorded for this entry: O=C(OCc1ccccc1)N1CCC(CNc2ccncc2)CC1
Result: 50

Query: // next record Cc1ccc(COC(=O)N2CCC(CNc3ncccn3)CC2)cc1
Result: 840

----------
Quick record of pIC50 values for UniProt P08684.
The scale used: pIC50 is minus the common logarithm of the concentration in molar units.

Query: What value of pIC50 has been recorded for this entry: O=C(OCc1ccccc1)N1CCC(CNc2cnccn2)CC1
Result: 4.66

Query: // next record O=C(OCc1ccccc1)N1CCC(CNc2cccnc2)CC1
Result: 5.04

----------
# measured.on: Glutamate receptor ionotropic, NMDA 2B (Homo sapiens, UniProt Q05586+Q13224)
# Sequence (Q13224 whole entry, one chain of several): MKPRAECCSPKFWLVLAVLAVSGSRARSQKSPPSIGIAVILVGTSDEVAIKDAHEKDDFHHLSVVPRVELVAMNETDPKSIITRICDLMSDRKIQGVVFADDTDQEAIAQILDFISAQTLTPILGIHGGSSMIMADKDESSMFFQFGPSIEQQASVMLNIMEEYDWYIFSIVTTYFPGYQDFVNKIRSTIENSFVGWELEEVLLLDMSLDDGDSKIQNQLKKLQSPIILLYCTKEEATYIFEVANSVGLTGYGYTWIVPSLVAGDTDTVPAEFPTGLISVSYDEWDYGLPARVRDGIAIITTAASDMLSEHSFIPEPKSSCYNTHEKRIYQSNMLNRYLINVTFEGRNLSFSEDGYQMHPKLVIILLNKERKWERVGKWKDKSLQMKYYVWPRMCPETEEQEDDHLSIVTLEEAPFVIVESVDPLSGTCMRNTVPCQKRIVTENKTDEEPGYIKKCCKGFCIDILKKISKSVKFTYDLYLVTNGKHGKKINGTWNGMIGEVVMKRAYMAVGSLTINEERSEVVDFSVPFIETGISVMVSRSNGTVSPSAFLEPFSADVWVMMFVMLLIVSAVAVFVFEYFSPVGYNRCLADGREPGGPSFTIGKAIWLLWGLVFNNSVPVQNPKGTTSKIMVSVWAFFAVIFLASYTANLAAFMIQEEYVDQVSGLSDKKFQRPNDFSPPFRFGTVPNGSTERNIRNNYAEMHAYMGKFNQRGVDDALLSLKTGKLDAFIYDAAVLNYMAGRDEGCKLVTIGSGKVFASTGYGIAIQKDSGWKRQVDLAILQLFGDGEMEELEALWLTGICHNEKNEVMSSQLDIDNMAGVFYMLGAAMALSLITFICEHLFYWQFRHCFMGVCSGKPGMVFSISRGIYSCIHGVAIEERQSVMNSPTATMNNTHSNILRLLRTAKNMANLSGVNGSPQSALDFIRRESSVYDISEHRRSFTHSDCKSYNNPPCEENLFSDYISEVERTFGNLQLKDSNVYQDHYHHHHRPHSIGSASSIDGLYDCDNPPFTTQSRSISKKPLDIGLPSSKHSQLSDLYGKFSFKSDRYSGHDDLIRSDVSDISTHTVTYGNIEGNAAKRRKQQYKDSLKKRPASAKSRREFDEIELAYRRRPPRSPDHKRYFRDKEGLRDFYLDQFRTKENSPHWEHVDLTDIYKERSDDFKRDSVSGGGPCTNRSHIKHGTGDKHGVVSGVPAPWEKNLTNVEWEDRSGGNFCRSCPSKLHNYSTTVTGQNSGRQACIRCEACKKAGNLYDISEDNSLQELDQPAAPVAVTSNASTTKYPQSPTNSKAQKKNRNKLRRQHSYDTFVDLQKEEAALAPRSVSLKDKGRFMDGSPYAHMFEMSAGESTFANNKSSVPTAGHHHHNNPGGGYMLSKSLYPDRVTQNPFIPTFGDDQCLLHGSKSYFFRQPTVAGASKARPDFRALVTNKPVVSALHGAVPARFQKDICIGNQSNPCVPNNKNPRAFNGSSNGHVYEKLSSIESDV
# experiment: Displacement of [3H](E)-N1-(2-methoxybenzyl)cinnamamidine from human NR2B expressed in Ltk- cells
value.kind: Ki (µM)
Response body: numeric value in µM, unit text excluded.

Query: What value of Ki has been recorded for this entry: CC(OC(=O)N1CCC(CNc2ncccn2)CC1)c1ccccc1 (racemic)
Result: 0.54

Query: // next record O=C(OCc1ccccc1)N1CCC(CNc2nncs2)CC1
Result: 0.19

Query: // next record Cc1ccc(COC(=O)N2CCC(COc3ncccn3)CC2)cc1
Result: 7.4

Query: // next record O=C(OCc1ccccc1)N1CCC(CNc2ccncn2)CC1
Result: 0.075

Query: // next record O=C(OCc1ccccc1)N1CCC(Cc2nc3ccccc3[nH]2)CC1
Result: 0.22

Query: // next record CC(C)(C)c1ccc(COC(=O)N2CCC(CNc3ncccn3)CC2)cc1
Result: 0.72

Query: // next record Cc1ccc(COC(=O)N2CCC(CN(C)c3ncccn3)CC2)cc1
Result: 2.1

Query: // next record O=C(OCc1ccccc1)N1CCC(CNc2cnccn2)CC1
Result: 0.014

Query: // next record c1ccc(CCCN2CCC(CNc3ncccn3)CC2)cc1
Result: 0.266

Query: // next record O=C(OCc1ccccc1F)N1CCC(CNc2ncccn2)CC1
Result: 0.018

Query: // next record c1ccc(COc2ccc(CCNc3ccncc3)cc2)cc1
Result: 0.093

Query: // next record O=C(OCc1ccccc1)N1CCC(CNc2cccnc2)CC1
Result: 0.18

Query: // next record O=C(OCc1ccccc1)N1CCC(CNc2ccccn2)CC1
Result: 0.037

Query: // next record O=C(NCc1ccccc1)N1CCC(CNc2ncccn2)CC1
Result: 1.17

Query: // next record O=C(OCc1ccc(F)cc1)N1CCC(CNc2ncccn2)CC1
Result: 0.018

Query: // next record N#CN=C(NCc1ccccc1)NN1CCC(CNc2ncccn2)CC1
Result: 3.1

Query: // next record CCc1ccc(COC(=O)N2CCC(CNc3ncccn3)CC2)cc1
Result: 0.0037

Query: // next record O=C(OCCc1ccccc1)N1CCC(CNc2ncccn2)CC1
Result: 0.227

Query: // next record O=C(CCc1ccccc1)N1CCC(CNc2ncccn2)CC1
Result: 0.31

Query: // next record Cc1cccc(COC(=O)N2CCC(CNc3ncccn3)CC2)c1
Result: 0.206

Query: // next record O=C(OCc1ccccc1)N1CCC(CNc2nccs2)CC1
Result: 0.122

----------
# measured.on: Cytochrome P450 3A4 (Homo sapiens, UniProt P08684)
# Sequence (P08684 whole entry): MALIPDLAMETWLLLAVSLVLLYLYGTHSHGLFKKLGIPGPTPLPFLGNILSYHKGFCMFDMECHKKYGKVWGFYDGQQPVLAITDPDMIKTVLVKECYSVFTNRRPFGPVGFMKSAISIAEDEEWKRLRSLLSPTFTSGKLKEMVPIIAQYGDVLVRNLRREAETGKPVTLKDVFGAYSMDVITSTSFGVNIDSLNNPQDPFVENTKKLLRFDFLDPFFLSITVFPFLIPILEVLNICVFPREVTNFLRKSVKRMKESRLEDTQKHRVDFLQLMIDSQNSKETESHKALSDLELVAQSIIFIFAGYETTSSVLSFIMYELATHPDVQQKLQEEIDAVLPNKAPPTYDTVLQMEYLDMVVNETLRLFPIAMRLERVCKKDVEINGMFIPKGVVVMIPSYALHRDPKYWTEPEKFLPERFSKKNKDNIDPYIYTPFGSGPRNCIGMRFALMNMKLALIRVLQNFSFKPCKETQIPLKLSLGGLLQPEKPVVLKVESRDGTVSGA
# experiment: Inhibition of CYP3A4 in human liver microsomes
For each record, write down the corresponding IC50.

Query: What value of IC50 has been recorded for this entry: O=C(OCc1ccccc1)N1CCC(CNc2ncccn2)CC1
Result: > 25 µM

Query: // next record O=C(OCc1ccccc1)N1CCC(CNc2ccccn2)CC1
Result: > 25 µM

Query: // next record O=C(OCc1ccccc1)N1CCC(CNc2ccncc2)CC1
Result: > 25 µM
